# System: DMS-114
# method: NCI tumour cell line growth inhibition, 48 h
Activity calls are given as the source filed them. Rule as the data show it: active = GI50 up to about 1.1 µM and inactive = higher.
Kindly supply the reported GI50 values for the records listed here.

What GI50 value was documented for this molecule, COC(=O)C(Cc1ccccc1)/N=C/c1c(O)c(O)c(C(C)C)c2cc(C)c(-c3c(C)cc4c(C(C)C)c(O)c(O)c(/C=N/C(Cc5ccccc5)C(=O)OC)c4c3O)c(O)c12 (stereo not given) ? > 10 µM (inactive)

Query (molecule): `Cc1cc2c(c(C(N)=O)c1C)-c1ccccc1C2=O` ; field requested: GI50 > 100 µM (inactive)

Fill in: GI50 of `NCCCCC(=O)c1cccnc1` is ___ > 100 µM (inactive)

Field request: GI50 | item: `CC(C)C1(O)C(c2ccccc2)=C(c2ccccc2)C(c2ccccc2)=C1c1ccccc1` 3.4 µM (inactive)

Bench note: what GI50 did CC(=O)OC1(Sc2ccccc2)CC2[C@H]3COC(C)(C)O[C@H]3CC[C@@]2(C)CC1=O (stereo not given in full) show? 27 µM (inactive)

Param item = `N#Cc1ccc(Oc2ccccc2)cc1C#N` ; retrieve measured GI50. 23.7 µM (inactive)

Which GI50 value is on record for `O=CN/C=C/c1cc(O)ccc1O` ? 17.6 µM (inactive)

Can you share its GI50? I mean this molecule: `C[n+]1[se]c2ccccc2c1Cl` 35.3 µM (inactive)

Need GI50 of `Cn1nc(-c2cccc(-c3nn(C)/c(=N\CCO)s3)n2)s/c1=N/CCO` , thanks. > 100 µM (inactive)

Could you share which GI50 value was measured for COC(=O)C(/C(=N/NC(N)=S)C(=O)Nc1ccccc1[N+](=O)[O-])c1cnc2ccccc2n1 (stereo not given) ? > 100 µM (inactive)

----------
# Tested on: HT-29
# method: NCI tumour cell line growth inhibition, 48 h
The source made the active and inactive calls. Cut-off read from the data, not from the text of the source: active = GI50 up to about 1.1 µM and inactive = higher.
Allowed answers: true = active, false = inactive

I'd appreciate the recorded outcome for `NC(=O)c1ccccc1[N+](=O)[O-]` from this test. false

Which result was noted for this compound in the test: `O=C1C(NS(=O)(=O)c2ccccc2)=C(n2ccnc2)C(=O)c2ccccc21` false

Hello, I am checking results. What call was entered for `CCc1n[nH]c(=O)n1-c1ccncc1` ? false

Identify the outcome logged in this assay for the compound shown: `CCOC(=O)C1=NN(c2ccc(Cl)cc2)C2=CC(C)=NN(C)C(=S)N21` false

How did this test come out for `CCN(c1cccc(NC(=S)Nc2ccccc2N(CC)c2cc(-c3ccccc3)no2)c1)c1cc(-c2ccccc2)no1` ? false

How did this test come out for `O=C(O)c1ccc(C(=O)O)c2c(C(=O)O)ccc(C(=O)O)c12` ? false

Tell me the assay call for `O=C1C=C/C(=C/[C@H]2SSC=C[C@]23C=CC(=O)C3)C1` please. false

Outcome? `O=c1c(Cl)c(Cl)cnn1CCc1ccncc1` false

Test call, this compound: CC(=O)NC1=C(C)C(=O)c2c(nc3n2CCC3OC(=O)c2ccccc2)C1=N (configuration not stated) true

Tell me the assay call for `CC1(C)CN=C(Nc2ccc(F)cc2)S1` please. false

Give the logged outcome of this assay for the following compound: CC(C)=CC(=O)C1c2cccc(O)c2C(=O)c2c(O)cc(C)cc21 (configuration not stated) false

Dear all, I need the recorded test outcome for C=C1C2CCC3(CCC4C5(C)CCCC4(C=[N+](CCO)C5)C3C2)C1O (configuration not stated) , thank you. false

What was the test verdict on O=C1c2c(ccc3c2CCC3)CC1Cc1ccc2c(c1)CCC2 (configuration not stated) ? false

How was `CC[C@H]1CN2CCc3cc(OC)c(OC)cc3[C@@H]2C[C@@H]1C[C@H]1NCCc2cc(O)c(OC)cc21` classified in this test? true

Hey, what did the test say about `COc1ccc(/C=C2\C[C@H]3[C@@H]4CCC5=C/C(=N/O)CC[C@]5(C)[C@H]4CC[C@]3(C)\C2=N\O)cc1OC` ? false

For `CC1=C2C(=O)c3ccccc3C(=O)[C@H]2C[C@@H](N2CCCC2=O)O1` , what call appears in the results of this test? false

What did the test return for `c1ccc2c(c1)[Se]c1ccccc1[Se]2` ? false

In this assay, the call recorded for CC12CCC(=O)[C@@]1(C)CCCC2O (some centres not stated) was what? false

Kindly provide the recorded test outcome for the following compound: CC(C)C1CSC2N1C(=O)C2(OCc1ccccc1)C1CC1 (configuration not stated) false

Per the records of this test, what outcome belongs to `O/N=C1\CCc2cc3c(cc21)CCC3` ? false

GET /call?item= C[C@@H]1CC(=O)[C@@]2(C)[C@](O)(CCC3O[C@]32C)[C@@]12CC(c1ccoc1)OC2=O (some centres not stated) returns the recorded outcome of this test. false

What did this assay record as the result for CC(C)C1=C(O)C(=O)C2=C(C1=O)C(O)CC1C(C)(C)CCCC21C (configuration not stated) ? false

----------
# Test system: Hs-578T
# method: NCI tumour cell line growth inhibition, 48 h
The source made the active and inactive calls. No stated cut-off is given here; in the data, active = GI50 up to about 1.1 µM and inactive = higher.
So I've got a bunch of compounds here, and I need their GI50 values.

Which GI50 is reported for this compound? `COC(=O)/C=C1\C(=O)N(C(C)=O)c2ccccc21` 4.17 µM (inactive)

// lookup GI50 for `Cc1ccc(C(=O)/C=C2\Nc3ccccc3NC2=O)cc1` 2.21 µM (inactive)

Need GI50, item CCOP(=O)(OCC)OC1CC(n2cc(C)c(=O)n(C)c2=O)OC1CO[Si](C)(C)C(C)(C)C (stereo unspecified) 46.6 µM (inactive)

Query: GI50; subject: `C=CCc1cccc2cc(C(=O)Nc3ccc(C)cc3)c(=N)oc12` > 100 µM (inactive)

What measured GI50 goes with CCCCCCCCCCCCCC(=O)OCC(CCS(=O)(=O)O[C@H]1CC[C@@]2(C)C(=CC[C@@H]3C2CC[C@]2(C)C(=O)CCC32)C1)OC(=O)CCCCCCCCCCCCC (stereo partly specified) ? > 100 µM (inactive)

GET /values?readout=GI50&item= `CC1CCN(c2nnc(Cl)cc2C(=O)c2ccccc2)CC1` 20 µM (inactive)

I have this compound here, `COc1ccc(C)c2c1N[C@](C)([C@]1(C)Nc3c(OC)ccc(C)c3C1=O)C2=O` , and I need its recorded GI50. 39.3 µM (inactive)

Could you tell me which GI50 is on file for `CC(C)(C)OC(=O)NCC(CNC(=O)OC(C)(C)C)C(N)=O` ? > 100 µM (inactive)

Find the recorded GI50 belonging to `CCOC(=O)c1cc(Br)c(-c2onc(C)c2Br)n1C` and report it. 10.8 µM (inactive)

I would be grateful if you could share the reported GI50 for `COc1cc(OC)c(-c2ccc(OCc3ccccc3)c3c(OC)cc(C)cc23)c2c1C(C)=N[C@H](C)C2` . 2.29 µM (inactive)

# GI50 lookup, item `c1ccc([P+](c2ccccc2)(c2ccccc2)c2ccc(-c3ccc([P+](c4ccccc4)(c4ccccc4)c4ccccc4)cc3)cc2)cc1` > 100 µM (inactive)

// returns reported GI50 for input Cc1ccccc1N1C(N)=C(C#N)C(C#N)(C#N)C1c1ccccc1 (stereo unspecified) 20.1 µM (inactive)

Dear colleague, I am looking for the recorded GI50 of the following compound: `O=C1Nc2ccccc2/C1=C1/Nc2ccccc2/C1=N/OCCO` 6.14 µM (inactive)

Endpoint output: GI50 of `COc1cccc(/N=C/c2cc3cc(Br)ccc3nc2Cl)c1` . Value? 40.6 µM (inactive)

Looking for the measured GI50 of COc1cccc(N2C(=O)CSC2c2cccc(Oc3ccccc3)c2)c1 (stereo unspecified) , can you help? 5.78 µM (inactive)

Looking for the measured GI50 of `FC(F)=C(c1ccc(-c2ccc(Cl)cc2)cc1)C(F)(F)F` , can you help? 26.1 µM (inactive)

// GI50 lookup, key: C=C1C2CCC3(CCC4C5(C)CCCC4(C=[N+](CCO)C5)C3C2)C1O (stereo unspecified) > 100 µM (inactive)

Endpoint output: GI50 of CN1CCOC1(C)c1ccccc1 (stereo unspecified) . Value? > 100 µM (inactive)

Returns the measured GI50 for the input compound. Input: `O=C(c1ccccc1)c1ccc(N2C(=O)/C(=C/Cc3ccco3)N=C2c2ccccc2)c(N2C(=O)/C(=C/Cc3ccco3)N=C2c2ccccc2)c1` 25.8 µM (inactive)

Bench note: what GI50 did `O=c1[nH]nc(Cc2ccccc2)n1/N=C\c1ccccc1` show? 76.2 µM (inactive)

Need GI50, item `OC1CSCCCSCCSCCCSC1` > 100 µM (inactive)

----------
# System: 786-0
# method: NCI tumour cell line growth inhibition, 48 h
The source made the active and inactive calls. No stated cut-off is given here; in the data, active = GI50 up to about 1.1 µM and inactive = higher.
Could you please report measured GI50 for the items listed next?

Need GI50, item `COc1cccc(/N=C/c2cc3cc(Br)ccc3nc2Cl)c1` 2.91 µM (inactive)

Looking for the measured GI50 of `CC/C(Cl)=N\OC(=O)Nc1ccc(F)cc1F` , can you help? 4.38 µM (inactive)

May I ask what GI50 has been recorded for `COC(=O)n1c(CBr)c(Br)c2ccccc21` ? 45 µM (inactive)

Reported GI50 for `COC(=O)CCCc1ccc2c(c1)CC1(Cc3ccccc3C1)C2` : what is it? > 100 µM (inactive)

Which GI50 reading was recorded for the compound `O=c1cc(NNc2cccc(Cl)c2)[nH]c(=O)[nH]1` ? 16.2 µM (inactive)

Would you kindly share the measured GI50 for O=C1c2ccccc2N2Oc3ccccc3C12c1ccccc1 (stereo unspecified) ? > 100 µM (inactive)

Given the entry `CN(CCn1cnc2c1c(=O)n(C)c(=O)n2C)C1CCCCC1` , report its measured GI50. > 100 µM (inactive)

So what does the record say about GI50 for `O=C(c1ccc(Br)cc1)n1c2ccc(Br)cc2c2nc3ccccc3nc21` ? > 100 µM (inactive)

Bench note: what GI50 did CCCCCCCCCCC(O)C1CCC(C(O)CCC(O)C2CCC(CCCCCCC[C@H](O)CC3=C[C@@H](C)OC3=O)O2)O1 (stereo partly specified) show? 17.3 µM (inactive)

Using the record for `O=C1Nc2ccccc2/C1=C1/Nc2ccccc2/C1=N/OCCO` , report its GI50. 13 µM (inactive)

Give its GI50 value. Item: `Cc1ccc(S(=O)(=O)NC(=O)OC23COCN2COC3)cc1` > 100 µM (inactive)
